Reference source for all entries: patent US10654917B2

TEST METHOD NOTES: Biodistribution of technetium-labelled peptides
Format: in vivo, CD1 mice
EXPERIMENTAL CONTEXT: CD1, heart, iv, 140 ug/mouse, total radioactivity; 140 μg/mouse; 2 min; read-out: injected activity in Heart
Protocol: To evaluate the capacity to cross the BBB in vivo, the selected peptides, pepH1 and pepH3, were analyzed for biodistribution in CD1 mice. The peptides were labelled with technetium at a final concentration of 8.5×10^−5 M and diluted in PBS. CD1 mice were injected (iv injection, tail vein). […] The tissues of interest were dissected and washed to remove excess blood, weighed, and measured for radioactivity. Technetium radioactivity of the different peptides was measured for different organs. […]
Residues, ends and D or L forms follow the SMILES beside them. *: point of attachment. X1 = Cc1nn(CCN(CCN)CCCC(=O)*)c(C)c1CC(=O)O
In this section, each of the molecules is paired with its reported tissue uptake at 2 min.
Enter your answer as a number in %ID/g; do not include the unit.

### Prompt What does the data say about its tissue uptake at 2 min? Entry: Cc1nn(CCN(CCN)CCCC(=O)N[C@H](C(=O)N[C@@H](CCC(N)=O)C(=O)N[C@@H](CCC(N)=O)C(=O)N[C@@H](CC(C)C)C(=O)N[C@H](C(=O)N[C@@H](CCCCN)C(=O)N[C@@H](CCCNC(=N)N)C(=O)N[C@@H](Cc2ccccc2)C(=O)N[C@@H](CO)C(=O)N[C@@H](CC(C)C)C(=O)O)[C@@H](C)O)C(C)C)c(C)c1CC(=O)O [^99mTc(CO)3-Pz^1-pepH1, metal not drawn] (X1-VQQLTKRFSL-OH; C-terminus assumed)
### Response 1.1

Okay, now this molecule:
### Prompt What does the data say about its tissue uptake at 2 min? Entry: CC[C@H](C)[C@H](NC(=O)CNC(=O)[C@H](C)NC(=O)CCCN(CCN)CCn1nc(C)c(CC(=O)O)c1C)C(=O)N[C@@H](CC(C)C)C(=O)N[C@@H](CCCCN)C(=O)N[C@@H](CCCNC(=N)N)C(=O)N[C@@H](Cc1c[nH]c2ccccc12)C(=O)O [^99mTc(CO)3-Pz^1-pepH3, metal not drawn] (X1-AGILKRW-OH; C-terminus assumed)
### Response 2.2
